Target: human D4 receptors (Homo sapiens, UniProt P21917)
Construct: expressed in transfected cells
Sequence (P21917 whole entry): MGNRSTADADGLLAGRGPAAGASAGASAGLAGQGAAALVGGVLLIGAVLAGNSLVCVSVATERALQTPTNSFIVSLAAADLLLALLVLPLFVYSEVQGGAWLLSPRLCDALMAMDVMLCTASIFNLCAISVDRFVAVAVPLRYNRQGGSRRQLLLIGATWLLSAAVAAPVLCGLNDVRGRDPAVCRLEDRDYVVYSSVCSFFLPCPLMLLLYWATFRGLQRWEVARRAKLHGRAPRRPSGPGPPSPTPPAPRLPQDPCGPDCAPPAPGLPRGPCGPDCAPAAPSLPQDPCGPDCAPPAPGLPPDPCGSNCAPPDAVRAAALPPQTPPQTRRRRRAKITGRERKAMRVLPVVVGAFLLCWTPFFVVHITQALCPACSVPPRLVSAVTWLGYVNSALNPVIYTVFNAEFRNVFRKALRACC
Experiment: Functional antagonist assay: reversal of dopamine inhibition of forskolin-stimulated adenyl cyclase (cAMP)
Assay type: cell-based
Details: 10 μM; dopamine and forskolin both 10 μM; read-out: % REVERSAL OF DOPAMINE EFFECT
experimental_readout: inhibition at 10 µM

INSERT INTO assay_data (molecular_string, measured_result) VALUES
  ('Clc1ccc2c(c1)N=C(N1CCN(Cc3ccc4c(c3)OCO4)CC1)c1ccccc1O2', '68%'),
  ('c1ccc2c(c1)N=C(N1CCN(Cc3ccc4c(c3)OCO4)CC1)c1ccccc1O2', '50%'),
  ('Clc1ccc2c(c1)C=C(N1CCN(Cc3ccc4c(c3)OCO4)CC1)c1ccccc1S2', '40%'),
  ('Clc1ccc2c(c1)Nc1ccccc1N=C2N1CCN(Cc2ccc3c(c2)OCO3)CC1', '50%');
